Cited source: patent US20240217946A1

Test: Pharmacokinetics and absolute bioavailability in rats (LC-MS/MS)
Assay type: in vivo
Details: male, SD, rat, plasma, oral, 12.5 mg/kg, single intragastric 12.5 mg/kg, 8 h, read-out: Plasma concentration, individual rats
measurementName: concentration at 8 h (ng/mL)
Express it in ng/mL; write the number only.

concentration at 8 h lookup needed for NC(=O)/C=C/c1cc2c(c(C(F)(F)F)c1)OCO2 , thanks. 5.38

* * *

Assay: Pharmacokinetics and absolute bioavailability in rats (LC-MS/MS)
Type: in vivo
Details: male, SD, rat, plasma, iv, 2.5 mg/kg, single intravenous 2.5 mg/kg, 0.50 h
measurementName: concentration at 0.5 h (ng/mL)
The response must be a number in ng/mL with no trailing unit.

NC(=O)/C=C/c1cc2c(c(C(F)(F)F)c1)OCO2 | 315

Here is the next item to consider.
Using the record for CC(C)CNC(=O)/C=C/c1cc2c(c(C(F)(F)F)c1)OCO2 , report its concentration at 0.5 h. 152

* * *

# key: entry, value: C0
Test: Pharmacokinetics and absolute bioavailability in rats (LC-MS/MS)
Assay type: in vivo
Details: male, SD, plasma; rat, intravenous administration 2.5 mg/kg, n = 5
Numeric answer only, unit ng/mL assumed.

CC(C)CNC(=O)/C=C/c1cc2c(c(C(F)(F)F)c1)OCO2 | 2050

API: the following record is the query input.
Consider the compound shown here: NC(=O)/C=C/c1cc2c(c(C(F)(F)F)c1)OCO2 What is its recorded C0? 1640

* * *

Listing of recorded pIC50 by entry.
Tested on: NA reuptake in rat brain synaptosomes
Test: 3H-NA reuptake by rat brain synaptosomes
Format: biochemical
Conditions: 3H-NA 10 nM, rat brain synaptosomes; read-out: NA inhibition rate % IC50
Experimental: At present, it is believed that absolute or relative deficiencies of the central monoamine neurotransmitters 5-hydroxytryptamine (5-HT), norepinephrine (NA) and dopamine (DA) are closely related to depression and anxiety. Synaptosomes were separated using methods in literature to prepare brain synaptosomes. SD rats were rapidly decapitated with a small animal decapitator. […] The percentage inhibition of isotope ligand binding by each compound was calculated according to the following equation: […]
Field pIC50 (float): negative decimal logarithm of the concentration in molar.

CC(C)CNC(=O)/C=C/c1cc2c(c(C(F)(F)F)c1)OCO2 [Compound I-5] | 7.76

Next molecule, pIC50 to be filled in.
Entry under review: NC(=O)/C=C/c1cc2c(c(C(F)(F)F)c1)OCO2 [Compound M2] . Reported pIC50? 7.63

* * *

Experiment: Pharmacokinetics and absolute bioavailability in rats (LC-MS/MS)
Type: in vivo
Details: male, SD, rat, plasma, iv, 2.5 mg/kg, single intravenous 2.5 mg/kg, 1 h, read-out: Plasma concentration, Mean
Property: concentration at 1 h; scope: individual compounds
Enter your answer as a number in ng/mL; do not include the unit.

CC(C)CNC(=O)/C=C/c1cc2c(c(C(F)(F)F)c1)OCO2 | 60.3

Could you now consider this next compound?
What value of concentration at 1 h has been reported for the following compound? NC(=O)/C=C/c1cc2c(c(C(F)(F)F)c1)OCO2 79

* * *

Experiment: Pharmacokinetics and absolute bioavailability in rats (LC-MS/MS)
Assay type: in vivo
Conditions: male, SD, rat, plasma, iv, 2.5 mg/kg, single intravenous 2.5 mg/kg, 0.08 h, read-out: Plasma concentration, individual rats
measurementName: concentration at 0.08 h (ng/mL)
Kindly answer with a numeric value in ng/mL, unit omitted.

Look up concentration at 0.08 h for this compound: NC(=O)/C=C/c1cc2c(c(C(F)(F)F)c1)OCO2 1090

* * *

Reported concentration at 2 h by item:
Assay: Pharmacokinetics and absolute bioavailability in rats (LC-MS/MS)
Assay type: in vivo
Conditions: male, SD, rat, plasma, oral, 12.5 mg/kg, single intragastric 12.5 mg/kg, 2 h
Answer format: numeric, ng/mL implied, no suffix.

CC(C)CNC(=O)/C=C/c1cc2c(c(C(F)(F)F)c1)OCO2 | 109

Given the entry NC(=O)/C=C/c1cc2c(c(C(F)(F)F)c1)OCO2 , report its measured concentration at 2 h. 132

* * *

Assay: Pharmacokinetics and absolute bioavailability in rats (LC-MS/MS)
Format: in vivo
Conditions: male, SD, rat, plasma, oral, 12.5 mg/kg, single intragastric 12.5 mg/kg, 0.50 h
Description: A LC-MS/MS method for determination of compound I-5 and compound M2 in rat plasma was established through experiments to investigate the pharmacokinetic characteristics and absolute bioavailability of compounds in rats. 20 SPF-grade SD male rats (body weight 220±20 g), purchased from Beijing Vital River Laboratory Animal Technology Co., Ltd. • Chromatographic column: waters BEH C18 1.7 μm; 2.1×100 mm Column • Internal standard: D-I-5 (deuterated compound I-5, with the following structural formula) […]
measurementName: concentration at 0.5 h
Be sure to follow the number with its unit.

CC(C)CNC(=O)/C=C/c1cc2c(c(C(F)(F)F)c1)OCO2 [Compound I-5] | 334 ng/mL

Query (molecule): NC(=O)/C=C/c1cc2c(c(C(F)(F)F)c1)OCO2 [Compound M2] ; field requested: concentration at 0.5 h 387 ng/mL

* * *

# concentration at 3 h per record follows
Test: Pharmacokinetics and absolute bioavailability in rats (LC-MS/MS)
Type: in vivo
Details: male, SD, rat, plasma, oral, 12.5 mg/kg, single intragastric 12.5 mg/kg, 3 h
The figure you give is taken to be in ng/mL; do not add the unit.

CC(C)CNC(=O)/C=C/c1cc2c(c(C(F)(F)F)c1)OCO2 | 44.4

Alright, here's another compound for you.
Consider the compound NC(=O)/C=C/c1cc2c(c(C(F)(F)F)c1)OCO2 and give its measured concentration at 3 h. 134

* * *

Test: Pharmacokinetics and absolute bioavailability in rats (LC-MS/MS)
Type: in vivo
Details: male, SD, rat, plasma, iv, 2.5 mg/kg, single intravenous 2.5 mg/kg, 4 h, read-out: Plasma concentration, individual rats
measurementName: concentration at 4 h (ng/mL)
Report the value in ng/mL with no unit label.

Given CC(C)CNC(=O)/C=C/c1cc2c(c(C(F)(F)F)c1)OCO2 , state its recorded concentration at 4 h. 3.01

* * *

Test: Pharmacokinetics and absolute bioavailability in rats (LC-MS/MS)
Format: in vivo
Details: male, SD, rat, plasma, oral, 12.5 mg/kg, single intragastric 12.5 mg/kg, 1 h, read-out: Plasma concentration, individual rats
measurementName: concentration at 1 h (ng/mL)
Numeric answer only, unit ng/mL assumed.

Please look up its concentration at 1 h: NC(=O)/C=C/c1cc2c(c(C(F)(F)F)c1)OCO2 145

* * *

Assay: Pharmacokinetics and absolute bioavailability in rats (LC-MS/MS)
Format: in vivo
Conditions: male, SD, rat, plasma, iv, 2.5 mg/kg, single intravenous 2.5 mg/kg, 0.08 h, read-out: Plasma concentration, Mean
measurementName: concentration at 0.08 h (µg/mL)
Your answer should be a plain number; it is taken to be in µg/mL.

NC(=O)/C=C/c1cc2c(c(C(F)(F)F)c1)OCO2 | 1.21

Entry CC(C)CNC(=O)/C=C/c1cc2c(c(C(F)(F)F)c1)OCO2 has what concentration at 0.08 h? 1.15

* * *

The following compounds are listed with their measured MRT inf values.
Assay: Pharmacokinetics and absolute bioavailability in rats (LC-MS/MS)
Type: in vivo
Details: male, Sprague-Dawley (SD), plasma, po; rat, intragastric administration 12.5 mg/kg, n = 5; read-out: MRT0-∞
Numeric only. Scale: h

CC(C)CNC(=O)/C=C/c1cc2c(c(C(F)(F)F)c1)OCO2 | 1.16

Now turn to the next compound.
Suppose we examine the compound NC(=O)/C=C/c1cc2c(c(C(F)(F)F)c1)OCO2 ; what MRT inf value has been reported? 2.52

* * *

Examples of compounds with documented concentration at 1 h follow.
Test: Pharmacokinetics and absolute bioavailability in rats (LC-MS/MS)
Format: in vivo
Conditions: male, SD, rat, plasma, oral, 12.5 mg/kg, single intragastric 12.5 mg/kg, 1 h, read-out: Plasma concentration, Mean
Give the quantity in ng/mL, number only.

NC(=O)/C=C/c1cc2c(c(C(F)(F)F)c1)OCO2 [Compound M2] | 211

Could you tell me which concentration at 1 h is on file for CC(C)CNC(=O)/C=C/c1cc2c(c(C(F)(F)F)c1)OCO2 [Compound I-5] ? 266

* * *

Assay: Pharmacokinetics and absolute bioavailability in rats (LC-MS/MS)
Assay type: in vivo
Conditions: male, SD, rat, plasma, oral, 12.5 mg/kg, single intragastric 12.5 mg/kg, 4 h, read-out: Plasma concentration, Mean
Items are presented alongside their recorded concentration at 4 h.
Please state the figure in ng/mL; there is no need to write the unit.

NC(=O)/C=C/c1cc2c(c(C(F)(F)F)c1)OCO2 | 164

Fill in the blank: the reported concentration at 4 h of CC(C)CNC(=O)/C=C/c1cc2c(c(C(F)(F)F)c1)OCO2 is ____. 15.3
